method description: protein stability index of a GFP-peptide fusion (yeast GPS) (PSI 1-4); higher = more stable; sorted into four equal gates, so the index is relative within each strain
protocol conditions: doa10∆
Returns rule met if the recorded protein stability index is greater than or equal to 3, and rule not met otherwise.

Example cases with answers are listed next.
[
  {
    "entry sequence": "SAGNDKMVKAWNLNQFQ [ASC1]",
    "label": "rule not met"
  },
  {
    "entry sequence": "TVHEMEEELKKLRDHEP [SMC4]",
    "label": "rule met"
  },
  {
    "entry sequence": "RNEEILRDIGECENEIK [SMC2]",
    "label": "rule not met"
  },
  {
    "entry sequence": "TTRNGFMEAQGAGIQII [FAS2]",
    "label": "rule not met"
  },
  {
    "entry sequence": "GPANNPNEFMQFKSKEV [PRP8]",
    "label": "rule met"
  },
  {
    "entry sequence": "DKKASMIISGSRDKTIK [ASC1]",
    "label": "rule not met"
  }
]

Please find the next sequence below.
*Q* In plain terms: is recorded protein stability index at least 3 for DLGIKYDPSIGIFGMDF [RPL11A] ?
*A* rule not met

###

method description: protein stability index of a GFP-peptide fusion (yeast GPS) (PSI 1-4); higher = more stable; sorted into four equal gates, so the index is relative within each strain
protocol conditions: ubr1∆
parameter: protein stability index

[
  {
    "entry sequence": "VGKDTPFTIYDGEAVAK [PRE5]",
    "protein stability index": 3.15
  },
  {
    "entry sequence": "TFENTNNTEKNDVTNKN [SIR4]",
    "protein stability index": 3.04
  },
  {
    "entry sequence": "LPRELPKLLDALNKISK [SNU114]",
    "protein stability index": 2.88
  },
  {
    "entry sequence": "MGGVSALRGMFKDRFKD [FAS2]",
    "protein stability index": 3.54
  },
  {
    "entry sequence": "SEAFPSLQSCSVAVHFQ [SMC4]",
    "protein stability index": 1.79
  }
]

State recorded protein stability index for all listed sequences.
1. SVLLHHKTMSIVGVLQD [RPT2]
2. YFSNKTSTGIIRCHRED [POP5]
3. PYAVLSQFYELRDREDW [YJR042W/NUP85]
4. GQNLKDLLVNFSAGAAA [RPP1A]
5. IRTQVNTGGESVVKKED [RGR1]

*A*
1. 1.57
2. 2.06
3. 2.71
4. 2.13
5. 3.4

###

Please provide measured protein stability index for the entries that follow.
method description: protein stability index of a GFP-peptide fusion (yeast GPS) (PSI 1-4); higher = more stable; sorted into four equal gates, so the index is relative within each strain
protocol conditions: san1∆
One number for each entry.

Illustrative cases are given below, each with its answer.
[
  {
    "entry sequence": "MDRTQTFIKDCLFTKCL [POP4]",
    "protein stability index": 1.7
  },
  {
    "entry sequence": "DEQQREDNNDAVNSIMA [ECM29]",
    "protein stability index": 3.07
  }
]

Now for a further sequence.
Just so you know, measured protein stability index for FGRKKRKGGPATAEKLP [RPT2] came out at 3.24

###

Please provide measured protein stability index for the entries that follow.
method description: protein stability index of a GFP-peptide fusion (yeast GPS) (PSI 1-4); higher = more stable; sorted into four equal gates, so the index is relative within each strain
protocol conditions: doa10∆
One number for each entry.

[
  {
    "entry sequence": "SGTDGSTIGILLLTIQL [SRP72]",
    "endpoint value": 3.09
  },
  {
    "entry sequence": "SDEEENNNNKSINKNNK [SSN2]",
    "endpoint value": 2.94
  },
  {
    "entry sequence": "LDKFTDGGLFTLFVRDQ [QCR2]",
    "endpoint value": 2.98
  },
  {
    "entry sequence": "TVLESLGRLNKLRKIAI [LIN1]",
    "endpoint value": 2.66
  },
  {
    "entry sequence": "ALKGPVRDKLDEYQAAV [DPB4]",
    "endpoint value": 3.31
  },
  {
    "entry sequence": "ANAMNRMAKLCARFLGN [RPO31]",
    "endpoint value": 3.12
  }
]

State recorded protein stability index for all listed sequences.
1. MSDFQKEKVEEQEQQQQ [RPS20]
2. KKRESGVEEEEELKDSE [SNF2]
3. RGRSVMKESVVEINSSE [ESC2]

*A*
1: 2.87; 2: 3.38; 3: 3.15

State recorded protein stability index for all listed sequences.
1. VAPVSEIVNMVPSHVPQ [SIR2]
2. KGGKGLGKGGAKRHRKI [HHF1]
3. NVNMTVNTMGTGGQTID [MED6]
4. SVWKPIAAIIGRLNTLV [IRR1]
5. TSGEAAALGMGLCMLGT [RPN2]
6. AFKHKRALVEHIIQAKA [RPL19A]
7. TPNMVNSEISNLPKDKS [SSN2]

*A*
1: 3.01; 2: 3.7; 3: 3.23; 4: 1.68; 5: 2.92; 6: 3.11; 7: 2.74
